Details: 298.15 K; 101.33 kPa; Liquid; Sing-around technique in a fixed-path interferometer
Measured parameter: speed of sound (m/s)

c1ccccc1
1298.3
C1CCCCC1
1254.4
C1CCCC1
1206.6
C1COCCO1
1343.6
C1COCO1
1339.9

###

Details: 283.15 K; 101.33 kPa; Liquid
Measured parameter: mass density (kg/m3)

C1CCCCC1 [cyclohexane]
788
c1ccccc1 [benzene]
889.9
C1COCO1 [1,3-dioxolane]
1077.1
C1COCCO1 [1,4-dioxane]
1045.2
C1CCCC1 [cyclopentane]
754.9

###

Details: 313.15 K; 101.33 kPa; Liquid
Measured parameter: mass density (kg/m3)

c1ccccc1
857.5
C1CCCC1
724.7
C1CCCCC1
759.6
C1COCO1
1040.2
C1COCCO1
1011

###

Details: 283.15 K; 101.33 kPa; Liquid; Sing-around technique in a fixed-path interferometer
Measured parameter: speed of sound (m/s)

c1ccccc1 [benzene]
1368.7
C1COCO1 [1,3-dioxolane]
1406.3
C1CCCCC1 [cyclohexane]
1327.8
C1COCCO1 [1,4-dioxane]
1409.6
C1CCCC1 [cyclopentane]
1283.5
